Target: Seed linoleate 13S-lipoxygenase-1 (Glycine max, UniProt P08170)
Sequence (P08170 whole entry): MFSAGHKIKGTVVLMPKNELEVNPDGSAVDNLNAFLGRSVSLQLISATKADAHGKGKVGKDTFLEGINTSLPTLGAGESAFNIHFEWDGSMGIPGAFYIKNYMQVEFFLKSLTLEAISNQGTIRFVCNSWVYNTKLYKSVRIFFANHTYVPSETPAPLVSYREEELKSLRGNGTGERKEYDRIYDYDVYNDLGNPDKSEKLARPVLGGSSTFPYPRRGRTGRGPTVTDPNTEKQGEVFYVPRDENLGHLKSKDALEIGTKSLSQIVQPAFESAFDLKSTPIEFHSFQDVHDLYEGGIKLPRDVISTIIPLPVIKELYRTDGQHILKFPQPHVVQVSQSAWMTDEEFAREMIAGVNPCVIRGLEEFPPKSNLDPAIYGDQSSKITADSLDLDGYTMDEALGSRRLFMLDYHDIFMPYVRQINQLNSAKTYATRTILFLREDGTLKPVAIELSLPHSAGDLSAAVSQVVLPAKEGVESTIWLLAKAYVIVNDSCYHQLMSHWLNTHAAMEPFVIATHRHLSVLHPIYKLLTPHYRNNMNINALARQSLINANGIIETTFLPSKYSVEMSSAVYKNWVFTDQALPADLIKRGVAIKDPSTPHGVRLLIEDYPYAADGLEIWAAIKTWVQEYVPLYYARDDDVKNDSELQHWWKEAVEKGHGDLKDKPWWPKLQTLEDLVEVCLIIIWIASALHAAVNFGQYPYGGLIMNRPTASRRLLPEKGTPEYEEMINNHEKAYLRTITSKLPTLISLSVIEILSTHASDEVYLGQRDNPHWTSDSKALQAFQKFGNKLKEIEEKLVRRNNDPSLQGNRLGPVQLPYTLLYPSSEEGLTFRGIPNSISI
The entries below come with measured IC50 values attached.
METRIC_NAME: IC50 (µM)

INSERT INTO assay_data (molecule, tgt, metric_name, unit_descriptor, recorded_number) VALUES
  ('COc1cc(C)ccc1OC(=O)C1CCCN1C(=O)C(C)c1cccc(C(=O)c2ccccc2)c1 (centres undefined)', 'Seed linoleate 13S-lipoxygenase-1 (Glycine max, UniProt P08170)', 'IC50', 'µM', 60),
  ('COc1ccc2cc(C(C)C(=O)N3CCCC3C(=O)OCCCc3cccnc3)ccc2c1 (centres undefined)', 'Seed linoleate 13S-lipoxygenase-1 (Glycine max, UniProt P08170)', 'IC50', 'µM', 46),
  ('CC(C(=O)OCCCc1cccnc1)c1cccc(C(=O)c2ccccc2)c1 (centres undefined)', 'Seed linoleate 13S-lipoxygenase-1 (Glycine max, UniProt P08170)', 'IC50', 'µM', 145),
  ('CC(C)Cc1ccc(C(C)C(=O)OCCCc2cccnc2)cc1 (centres undefined)', 'Seed linoleate 13S-lipoxygenase-1 (Glycine max, UniProt P08170)', 'IC50', 'µM', 45),
  ('CCOC(=O)C(CS)NC(=O)C1CCCN1C(=O)C(C)c1cccc(C(=O)c2ccccc2)c1 (centres undefined)', 'Seed linoleate 13S-lipoxygenase-1 (Glycine max, UniProt P08170)', 'IC50', 'µM', 170),
  ('CC(C)Cc1ccc(C(C)C(=O)N2CCCC2C(=O)OCCCc2ccccc2)cc1 (centres undefined)', 'Seed linoleate 13S-lipoxygenase-1 (Glycine max, UniProt P08170)', 'IC50', 'µM', 60),
  ('COc1ccc2cc(C(C)C(=O)OCCCc3cccnc3)ccc2c1 (centres undefined)', 'Seed linoleate 13S-lipoxygenase-1 (Glycine max, UniProt P08170)', 'IC50', 'µM', 28),
  ('COc1cc(C)ccc1OC(=O)C(C)c1ccc(CC(C)C)cc1 (centres undefined)', 'Seed linoleate 13S-lipoxygenase-1 (Glycine max, UniProt P08170)', 'IC50', 'µM', 65),
  ('CC(C)Cc1ccc(C(C)C(=O)N2CCCC2C(=O)OCCO)cc1 (centres undefined)', 'Seed linoleate 13S-lipoxygenase-1 (Glycine max, UniProt P08170)', 'IC50', 'µM', 320);
